test: Cytotoxicity against MDCK cells assessed as change in cell morphology measured after 72 hrs by microscopic analysis; type: cell-based, Canis lupus familiaris; settings: dog
Doc: threshold 80 µM (exclusive). Items with MCC at 72 h beneath it return Yes; others return No.

Ask | Please indicate whether the reported MCC at 72 h of COC(=O)C[C@H](NC(=O)OC(C)(C)C)C(=O)N(Cc1ccc(F)cc1)C1(C(=O)NCc2ccccc2)CCN(Cc2cccc(F)c2)CC1 is strictly below 80 µM.
Reply | No

Ask | Please indicate whether the reported MCC at 72 h of COC(=O)C[C@H](NC(=O)OC(C)(C)C)C(=O)N(Cc1ccc(F)cc1)C(C)(C)C(=O)NCc1ccccc1 is strictly below 80 µM.
Reply | Yes

Ask | Please indicate whether the reported MCC at 72 h of CC[C@H](C)[C@H](NC(=O)OCc1ccccc1)C(=O)N(C1CC1)C1(C(=O)NCc2ccccc2)CCN(Cc2ccccc2)CC1 is strictly below 80 µM.
Reply | No

Ask | Please indicate whether the reported MCC at 72 h of CC[C@H](C)[C@H](NC(=O)OCc1ccccc1)C(=O)N(C1CC1)C1(C(=O)NC(C)(C)C)CCN(Cc2ccccc2)CC1 is strictly below 80 µM.
Reply | No

Ask | Please indicate whether the reported MCC at 72 h of COC(=O)C[C@H](NC(=O)OC(C)(C)C)C(=O)N(Cc1ccc(F)cc1)C1(C(=O)NCc2ccccc2)CCN(CCc2ccccc2)CC1 is strictly below 80 µM.
Reply | No

Ask | Please indicate whether the reported MCC at 72 h of COC(=O)C[C@H](NC(=O)OC(C)(C)C)C(=O)N(Cc1ccccc1F)C1(C(=O)NCc2ccccc2)CCN(Cc2ccccc2)CC1 is strictly below 80 µM.
Reply | Yes

Ask | Please indicate whether the reported MCC at 72 h of COC(=O)C[C@H](NC(=O)OC(C)(C)C)C(=O)N(CCNc1ccccc1)C1(C(=O)NCc2ccccc2)CCN(Cc2ccccc2)CC1 is strictly below 80 µM.
Reply | Yes

Ask | Please indicate whether the reported MCC at 72 h of CC(C)(C)OC(=O)N[C@@H](CC(N)=O)C(=O)N(Cc1ccc(F)cc1)C1(C(=O)NCc2ccccc2)CCN(Cc2ccccc2)CC1 is strictly below 80 µM.
Reply | No

Ask | Please indicate whether the reported MCC at 72 h of COC(=O)C[C@H](NC(=O)OC(C)(C)C)C(=O)N(Cc1ccc(C(F)(F)F)cc1)C1(C(=O)NCc2ccccc2)CCN(Cc2ccccc2)CC1 is strictly below 80 µM.
Reply | No

Ask | Please indicate whether the reported MCC at 72 h of CC[C@H](C)[C@H](NC(=O)OC(C)(C)C)C(=O)N(Cc1ccccc1)C1(C(=O)NCc2ccccc2)CCN(Cc2ccccc2)CC1 is strictly below 80 µM.
Reply | No

Ask | Please indicate whether the reported MCC at 72 h of COC(=O)C[C@H](NC(=O)OC(C)(C)C)C(=O)N(Cc1ccc(F)cc1)C1(C(=O)NCc2ccccc2)CCN(Cc2ccccc2)CC1 is strictly below 80 µM.
Reply | No

Ask | Please indicate whether the reported MCC at 72 h of CC(C)(C)OC(=O)N[C@@H](Cc1ccccc1)C(=O)N(Cc1ccc(F)cc1)C1(C(=O)NCc2ccccc2)CCN(Cc2ccccc2)CC1 is strictly below 80 µM.
Reply | No

Ask | Please indicate whether the reported MCC at 72 h of COC(=O)C[C@H](NC(=O)OC(C)(C)C)C(=O)N(Cc1ccc(F)cc1)C1(C(=O)NCc2ccccc2)CCN(C2CCCCC2)CC1 is strictly below 80 µM.
Reply | Yes

Ask | Please indicate whether the reported MCC at 72 h of COC(=O)C[C@H](NC(=O)OCc1ccccc1)C(=O)N(C1CC1)C1(C(=O)NCc2ccccc2)CCN(Cc2ccccc2)CC1 is strictly below 80 µM.
Reply | Yes

###

Assignment: determine reported MCC at 72 h for the given molecules.
test: Cytotoxicity against MDCK cells assessed as change in cell morphology measured after 72 hrs by microscopic analysis; type: cell-based, Canis lupus familiaris; conditions: dog
The answer is to be given in µM; state only the numeric part.

Data point: COC(=O)C[C@H](NC(=O)OC(C)(C)C)C(=O)N(Cc1cccc(F)c1)C1(C(=O)NCc2ccccc2)CCN(Cc2ccccc2)CC1 ; MCC at 72 h = 47

Data point: COC(=O)C[C@H](NC(=O)OC(C)(C)C)C(=O)N(Cc1ccc(F)cc1)C1(C(=O)NCc2ccccc2)CCN(Cc2cc(F)cc(F)c2)CC1 ; MCC at 72 h = 100

Data point: COC(=O)CCC(=O)N(Cc1ccc(F)cc1)C1(C(=O)NCc2ccccc2)CCN(Cc2ccccc2)CC1 ; MCC at 72 h = 16

Data point: COC(=O)C[C@H](NC(=O)OCc1ccccc1)C(=O)N(Cc1ccc(F)cc1)C1(C(=O)NCc2ccccc2)CCN(Cc2ccccc2)CC1 ; MCC at 72 h = 2.6

Data point: CC(C)(C)OC(=O)N[C@@H](CC(=O)O)C(=O)N(Cc1ccc(F)cc1)C1(C(=O)NCc2ccccc2)CCNCC1 ; MCC at 72 h = 79

Data point: COC(=O)C[C@H](NC(=O)OC(C)(C)C)C(=O)N(Cc1ccc(F)cc1)C1(C(=O)NCc2ccccc2)CC[N+](C)(Cc2ccccc2)CC1 (some centres undefined) ; MCC at 72 h = 100

Data point: COC(=O)C[C@H](NC(=O)OC(C)(C)C)C(=O)N(Cc1ccc(F)cc1)C1(C(=O)NCc2ccccc2)CCN(c2ccccc2)CC1 ; MCC at 72 h = 20

Data point: COC(=O)C[C@H](NC(=O)OC(C)(C)C)C(=O)N(Cc1ccc(F)cc1)C1(C(=O)NCc2ccccc2)CCN(C)CC1 ; MCC at 72 h = 17

Data point: COC(=O)C[C@H](NC(=O)OC(C)(C)C)C(=O)N(Cc1ccc([N+](=O)[O-])cc1)C1(C(=O)NCc2ccccc2)CCN(Cc2ccccc2)CC1 ; MCC at 72 h = 20

Data point: COC(=O)C[C@H](NC(=O)OC(C)(C)C)C(=O)N(Cc1ccc(F)cc1)C1(C(=O)NC(C)(C)C)CCN(Cc2ccccc2)CC1 ; MCC at 72 h = 80

Data point: CC(C)(C)NC(=O)C1(N(C(=O)[C@H](Cc2ccccc2)NC(=O)OC(C)(C)C)C2CC2)CCN(Cc2ccccc2)CC1 ; MCC at 72 h = 84

Data point: COC(=O)C[C@H](NC(=O)OC(C)(C)C)C(=O)N(Cc1ccc(F)cc1)C1(C(=O)NC2CCCCC2)CCN(Cc2ccccc2)CC1 ; MCC at 72 h = 100

###

assay: Selectivity index, ratio of MCC for human HeLa cells to EC50 for antiviral activity against Influenza A virus (A/PR 8/34 (H1N1)) infected in human Calu-3 cells; type: toxicity, cell-based; conditions: HeLa cells (MCC) and Calu-3 cells (EC50), read-out: Selectivity Index
experimental.readout: selectivity ratio

Data point: COC(=O)C[C@H](NC(=O)OC(C)(C)C)C(=O)N(Cc1ccc(F)cc1)C1(C(=O)NCc2ccccc2)CCN(Cc2ccccc2)CC1 ; selectivity ratio = ≥ 30

###

experiment: Cytotoxicity against MDCK cells assessed as reduction in cell viability measured after 72 hrs by MTS assay; type: cell-based, Canis lupus familiaris; conditions: dog
experimental.readout: CC50 at 72 h

Data point: COC(=O)C[C@H](NC(=O)OC(C)(C)C)C(=O)N(Cc1ccc([N+](=O)[O-])cc1)C1(C(=O)NCc2ccccc2)CCN(Cc2ccccc2)CC1 ; CC50 at 72 h = > 100 µM

Data point: COC(=O)C[C@H](NC(=O)OC(C)(C)C)C(=O)N(C1CC1)C1(C(=O)NCc2ccccc2)CCN(Cc2ccccc2)CC1 ; CC50 at 72 h = 56 µM

Data point: CC(C)(C)NC(=O)C1(N(C(=O)[C@H](Cc2ccccc2)NC(=O)OC(C)(C)C)C2CC2)CCN(Cc2ccccc2)CC1 ; CC50 at 72 h = 58 µM

Data point: CC(C)(C)OC(=O)N[C@@H](Cc1ccccc1)C(=O)N(Cc1ccc(F)cc1)C1(C(=O)NCc2ccccc2)CCN(Cc2ccccc2)CC1 ; CC50 at 72 h = 56 µM

###

experiment: Cytotoxicity against MDCK cells assessed as reduction in cell viability measured after 72 hrs by MTS assay; type: cell-based, Canis lupus familiaris; details: dog
experimental.readout: CC50 at 72 h (µM)
The answer is to be given in µM; state only the numeric part.

Data point: CC(C)(C)OC(=O)N[C@@H](CC(=O)O)C(=O)N(Cc1ccc(F)cc1)C1(C(=O)NCc2ccccc2)CCNCC1 ; CC50 at 72 h = 49

Data point: COC(=O)C[C@H](NC(=O)OC(C)(C)C)C(=O)N(Cc1ccc(F)cc1)C1(C(=O)NCc2ccccc2)CCN(C)CC1 ; CC50 at 72 h = 9.5

Data point: COC(=O)C[C@H](NC(=O)OC(C)(C)C)C(=O)N(Cc1ccc(F)cc1)C1(C(=O)NCc2ccccc2)CCNCC1 ; CC50 at 72 h = 48

Data point: COC(=O)C[C@H](N)C(=O)N(Cc1ccc(F)cc1)C1(C(=O)NCc2ccccc2)CCN(Cc2ccccc2)CC1 ; CC50 at 72 h = 54

Data point: COC(=O)C[C@H](NC(=O)OC(C)(C)C)C(=O)N(Cc1ccc(F)cc1)C1(C(=O)NCS(=O)(=O)c2ccc(C)cc2)CCN(Cc2ccccc2)CC1 ; CC50 at 72 h = 6.4
